biological target: hMCR-4 (Homo sapiens (Human), UniProt P32245); test: Competitive inhibition binding assay using [I125]-NDP-α-MSH, hMCR-4; conditions: membrane homogenates of HEK-293 cells, human recombinant receptor, averaged, read-out: MC-4 Ki (average)
Sequence (P32245 whole entry): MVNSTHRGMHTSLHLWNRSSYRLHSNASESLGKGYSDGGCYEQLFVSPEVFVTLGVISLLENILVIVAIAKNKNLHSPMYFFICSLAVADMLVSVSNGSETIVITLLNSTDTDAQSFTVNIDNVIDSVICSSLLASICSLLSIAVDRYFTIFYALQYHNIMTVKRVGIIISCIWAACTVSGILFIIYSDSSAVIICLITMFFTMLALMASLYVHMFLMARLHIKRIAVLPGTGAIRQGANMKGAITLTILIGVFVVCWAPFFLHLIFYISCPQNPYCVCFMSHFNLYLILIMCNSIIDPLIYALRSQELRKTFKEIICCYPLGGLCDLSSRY
Bridge positions count the residues as written; N and C are the ends. Square brackets hold non-standard residues; d marks the D form. Peptide text beside a SMILES is read from it. dPhe(3-Cl) = N[C@H](Cc1cccc(Cl)c1)C(=O)O; dPhe(4-Me) = Cc1ccc(C[C@@H](N)C(=O)O)cc1; Nle = CCCC[C@H](N)C(=O)O; Orn = NCCC[C@H](N)C(=O)O; Dab = NCC[C@H](N)C(=O)O
measuredMetric: Ki (µM)
Numbers only, in µM.

[
  {
    "compound": "CCCC[C@H](NC(C)=O)C(=O)N[C@H]1CNC(=O)CCC(=O)NCC[C@@H](C(=O)N[C@@H](Cc2c[nH]c3ccccc23)C(N)=O)NC(=O)[C@H](CCCNC(=N)N)NC(=O)[C@@H](Cc2ccccc2)NC(=O)[C@H](Cc2c[nH]cn2)NC1=O",
    "unitsText": "µM",
    "measured": 0.86
  },
  {
    "compound": "CCCC[C@H](NC(C)=O)C(=O)N[C@H]1CCC(=O)NCC[C@@H](C(=O)N[C@H](Cc2ccc3ccccc3c2)C(N)=O)NC(=O)[C@H](CCCNC(=N)N)NC(=O)[C@@H](Cc2ccccc2)NC(=O)[C@H](Cc2c[nH]cn2)NC1=O",
    "unitsText": "µM",
    "measured": "9.5e-05"
  },
  {
    "compound": "CCCC[C@H](NC(C)=O)C(=O)N[C@H]1CCC(=O)NCC[C@@H](C(N)=O)NC(=O)[C@H](CCCNC(=N)N)NC(=O)[C@@H](Cc2ccc(C)cc2)NC(=O)[C@H](CCCN)NC1=O [Example 9.63] (Ac-[Nle]E[Orn][dPhe(4-Me)]R[Dab]-NH2; lactam 2-6)",
    "unitsText": "µM",
    "measured": 10
  }
]

Please look up its Ki: CCCC[C@H](NC(C)=O)C(=O)N[C@H]1CCC(=O)NCC[C@@H](C(N)=O)NC(=O)[C@H](CCCNC(=N)N)NC(=O)[C@@H](Cc2cccc(Cl)c2)NC(=O)[C@H](CCCN)NC1=O [Example 9.58] (Ac-[Nle]E[Orn][dPhe(3-Cl)]R[Dab]-NH2; lactam 2-6)
10
